# target.entity: T1, human LIV-1 (human, UniProt Q13433 29-755)
# T1 construct: whole, on cells; also called H-LIV1
# T1 sequence (looked up): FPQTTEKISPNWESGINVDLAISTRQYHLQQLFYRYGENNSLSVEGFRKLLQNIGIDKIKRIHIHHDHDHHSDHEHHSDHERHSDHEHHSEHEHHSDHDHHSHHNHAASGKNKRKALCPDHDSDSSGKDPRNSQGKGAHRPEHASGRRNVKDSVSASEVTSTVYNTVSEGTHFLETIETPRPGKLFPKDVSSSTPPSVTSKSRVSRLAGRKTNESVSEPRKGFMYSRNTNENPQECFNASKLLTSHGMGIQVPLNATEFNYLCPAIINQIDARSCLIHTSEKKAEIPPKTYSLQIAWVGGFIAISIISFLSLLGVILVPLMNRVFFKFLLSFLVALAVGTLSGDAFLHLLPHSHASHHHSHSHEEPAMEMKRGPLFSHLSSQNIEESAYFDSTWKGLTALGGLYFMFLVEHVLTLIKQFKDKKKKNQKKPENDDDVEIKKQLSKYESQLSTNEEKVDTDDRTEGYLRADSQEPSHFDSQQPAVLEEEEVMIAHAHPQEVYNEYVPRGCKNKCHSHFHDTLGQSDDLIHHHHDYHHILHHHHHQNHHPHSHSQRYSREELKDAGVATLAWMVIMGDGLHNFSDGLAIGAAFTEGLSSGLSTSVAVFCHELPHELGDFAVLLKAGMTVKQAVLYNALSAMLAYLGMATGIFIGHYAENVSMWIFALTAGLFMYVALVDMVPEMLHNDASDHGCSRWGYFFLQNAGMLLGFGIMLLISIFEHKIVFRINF
# protocol.summary: FACS, BT20/H_LIV-1 Low cells
Rule: measured Top (MFI) below 4000 MFI gets True; anything equal to or greater than 4000 MFI gets False.

binder | cat
124H4D11.p2.z4 (antibody, V domains shown) VH: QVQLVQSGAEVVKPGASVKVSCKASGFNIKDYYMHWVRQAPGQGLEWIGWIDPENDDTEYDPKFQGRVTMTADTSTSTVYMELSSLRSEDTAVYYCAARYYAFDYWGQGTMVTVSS VL: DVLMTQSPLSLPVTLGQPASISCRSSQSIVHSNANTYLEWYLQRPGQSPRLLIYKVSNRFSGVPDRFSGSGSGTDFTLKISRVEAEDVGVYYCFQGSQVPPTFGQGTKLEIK | True
290F10G10.z2-Eribulin (antibody, V domains shown, Eribulin drug moiety conjugated; site and chain not stated) VH: EVQLVQSGAEVKKPGASVKVSCKASGYTFTSYWIHWVRQAPGQGLEWMGTIYPGDADTRSTQKFKDRVTMTADTSTSTVYMELSSLRSEDTAVYYCARSLIHDDYDKYYFDYWGQGTTVTVSS VL: DIQMTQSPSSLSASVGDRVTITCKARQDINKYIAWYQQKPGKAPKLLIHYTSILQPGIPSRFSGSGSGRDYTFTISSLQPEDIATYYCLQYDYFFTFGGGTKVEIK | True
290F10G10.p1.Z2 (antibody, V domains shown, also called 290F10G10.z2; LM-001) VH: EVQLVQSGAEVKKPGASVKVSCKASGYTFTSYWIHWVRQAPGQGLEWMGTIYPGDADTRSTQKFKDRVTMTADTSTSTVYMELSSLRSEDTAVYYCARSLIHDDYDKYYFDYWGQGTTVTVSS VL: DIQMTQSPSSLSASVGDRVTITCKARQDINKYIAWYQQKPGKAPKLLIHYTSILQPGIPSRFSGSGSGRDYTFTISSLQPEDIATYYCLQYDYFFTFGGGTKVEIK | True
5D6B10.z7-MMAE (antibody, V domains shown, MMAE drug moiety conjugated; site and chain not stated, Antibody-drug conjugate of 5D6B10.z7; human gamma 1/kappa) VH: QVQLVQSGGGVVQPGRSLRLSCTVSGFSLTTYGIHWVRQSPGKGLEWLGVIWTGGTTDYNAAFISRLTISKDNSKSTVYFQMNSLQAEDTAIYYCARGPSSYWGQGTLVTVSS VL: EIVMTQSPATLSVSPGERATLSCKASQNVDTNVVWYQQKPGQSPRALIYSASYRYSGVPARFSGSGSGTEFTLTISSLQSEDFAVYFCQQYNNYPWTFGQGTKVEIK | False
5D6B10.z7-Eribulin (antibody, V domains shown, Eribulin drug moiety conjugated; site and chain not stated, Antibody-drug conjugate of 5D6B10.z7; human gamma 1/kappa) VH: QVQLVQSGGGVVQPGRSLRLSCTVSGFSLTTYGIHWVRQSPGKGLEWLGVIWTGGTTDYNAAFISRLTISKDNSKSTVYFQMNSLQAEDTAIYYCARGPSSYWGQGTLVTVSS VL: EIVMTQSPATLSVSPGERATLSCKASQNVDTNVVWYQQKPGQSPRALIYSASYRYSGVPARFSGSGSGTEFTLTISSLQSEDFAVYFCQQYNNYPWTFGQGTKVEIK | False
290F10G10.z2-MMAE (antibody, V domains shown, MMAE drug moiety conjugated; site and chain not stated, also called LM-001-MMAE) VH: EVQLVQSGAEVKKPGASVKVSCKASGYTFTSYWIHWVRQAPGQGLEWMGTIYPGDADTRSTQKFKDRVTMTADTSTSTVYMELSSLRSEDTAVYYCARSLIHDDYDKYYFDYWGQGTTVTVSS VL: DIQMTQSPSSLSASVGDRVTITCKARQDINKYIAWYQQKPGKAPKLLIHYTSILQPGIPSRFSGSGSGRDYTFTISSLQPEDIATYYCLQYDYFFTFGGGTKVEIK | True
